Hi there, I'd appreciate the recorded protein stability index for every entry that follows.
B1: NECAB1 (parent)
chain: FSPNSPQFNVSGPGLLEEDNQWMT

Variants of: B1
test.description: protein stability index of a GFP-peptide fusion (GPS, HEK-293T) (PSI 1-6); higher = more stable;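 also: lentivirally expressed fusions sorted by FACS into six bins by GFP to DsRed ratio, PSI derived from sequencing read proportions per bin multiplied by bin number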
assay.context: c terminus: a fixed tail appended

[in] If you can, please state the reported protein stability index value of "N20L" .
[out] 2.27

Batch of 8 variants: report protein stability index for each.
1. D19H
2. N20C
3. P6E
4. F8Q
5. E18A
6. P13Y
7. M23N
8. P3C

[out]
[2.79, 2.63, 3.88, 3.79, 2.82, 2.75, 3.45, 2.33]

Batch of 4 variants: report protein stability index for each.
1. N9D
2. W22M
3. Q21D
4. G14D

[out]
[3.67, 3.39, 1.97, 3.73]
